I'd be grateful if you could share measured melting point for these entries.

Returns the measured melting point for the input molecule. Input: Cc1ccccc1C=C1CCn2c1nc1ccc(C#N)cc1c2=O
234 to 236 °C

What melting point value was documented for this molecule, COC(=O)[C@H](CCCCNC(=O)c1ccc(C(=O)c2ccccc2)cc1)n1c2ccccc2c2ccccc21 ?
65 °C

Which melting point is listed for COc1ncnc(N2CCCC2)c1Cc1cccc(F)c1 ?
74 to 76 °C

Name the reported melting point value associated with the molecule CCN1CCCC1CNC(=O)c1cc(NS(N)(=O)=O)c(C)cc1OC (stereo not given)
140 to 141 °C

// melting point lookup, key: CCCCCCCCCCCc1nnc2n1-c1sc(CC)cc1C(c1ccc(O)cc1)OC2 (stereo not given)
96 to 98 °C

Given CCCCCCCCCCCCS(=O)(=O)c1ccc2c(c1)C(=O)c1c(c(O)c3ccccc3c1O)C2=O , state its recorded melting point.
185 to 186 °C

Field request: melting point | item: COc1ccc2c(c1)C(=O)Cc1c(Cl)cccc1S2
117 to 120 °C

Which melting point value is on record for COc1ccc2cc([C@H](C)C(=O)OCC[Si](C)(C)C)ccc2c1 ?
81.5 to 82.5 °C

Fill in the blank: the reported melting point of Cc1c(C)c([N+](=O)[O-])c(C)c2c1OC(C)(C)C2c1ccc(C(C)C)cc1 (stereo not given) is ____.
109 to 110 °C

Would you kindly share the measured melting point for Nc1nc2ccccc2c2c1ncn2CCOCC#Cc1nccs1 ?
157 to 159 °C
